Data origin: patent US12398141B2

target: JAK2 (Homo sapiens (Human), UniProt O60674); assay: JAK2 LANCE Ultra kinase assay; type: biochemical; conditions: 12 uM ATP
Sequence (O60674 whole entry): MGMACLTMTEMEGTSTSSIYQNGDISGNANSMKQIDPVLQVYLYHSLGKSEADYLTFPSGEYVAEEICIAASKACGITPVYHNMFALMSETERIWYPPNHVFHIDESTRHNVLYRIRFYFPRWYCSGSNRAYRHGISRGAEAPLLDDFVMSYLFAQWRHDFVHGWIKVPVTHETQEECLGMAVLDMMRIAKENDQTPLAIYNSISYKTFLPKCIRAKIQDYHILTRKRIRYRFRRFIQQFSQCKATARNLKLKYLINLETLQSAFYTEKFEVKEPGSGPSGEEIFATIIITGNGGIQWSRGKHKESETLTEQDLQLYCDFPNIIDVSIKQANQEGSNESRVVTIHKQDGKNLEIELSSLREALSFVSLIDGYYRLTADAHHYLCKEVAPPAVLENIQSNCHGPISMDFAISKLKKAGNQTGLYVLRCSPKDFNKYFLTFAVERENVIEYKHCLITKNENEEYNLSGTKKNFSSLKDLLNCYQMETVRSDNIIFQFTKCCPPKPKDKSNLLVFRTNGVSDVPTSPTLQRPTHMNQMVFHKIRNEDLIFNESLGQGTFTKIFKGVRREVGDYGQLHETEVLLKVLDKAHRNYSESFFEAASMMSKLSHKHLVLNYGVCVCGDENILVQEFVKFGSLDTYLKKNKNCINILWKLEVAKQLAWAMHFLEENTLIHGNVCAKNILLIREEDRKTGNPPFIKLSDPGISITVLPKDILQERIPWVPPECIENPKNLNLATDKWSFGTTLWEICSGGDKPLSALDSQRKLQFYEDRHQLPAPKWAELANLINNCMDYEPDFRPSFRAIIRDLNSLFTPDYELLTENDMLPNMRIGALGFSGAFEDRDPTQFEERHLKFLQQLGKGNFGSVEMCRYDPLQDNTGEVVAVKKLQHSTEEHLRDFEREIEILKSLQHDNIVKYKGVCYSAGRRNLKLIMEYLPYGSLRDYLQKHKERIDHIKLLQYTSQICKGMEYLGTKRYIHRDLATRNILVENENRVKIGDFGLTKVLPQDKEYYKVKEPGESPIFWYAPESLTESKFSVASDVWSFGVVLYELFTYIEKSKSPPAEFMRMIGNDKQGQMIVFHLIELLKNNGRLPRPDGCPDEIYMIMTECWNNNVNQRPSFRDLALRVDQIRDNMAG
So basically, if IC50 comes in under 40 nM it's 1 (yes), and if it's 40 nM or more it's 0 (no).

{"MOLECULE": "CC[C@@H]1CN(C(=O)NCC#N)C[C@@H]1Nc1c(C(F)(F)F)cnc2[nH]ccc12", "GROUP": "1 (yes)"}

Regarding C[C@@H]1CN(S(=O)(=O)C[C@H]2CC[C@H](N(C)c3c(C#N)cnc4[nH]ccc34)CC2)C[C@H]1CO (relative stereo) , kindly confirm whether its IC50 is beneath 40 nM.
0 (no)

Cool, now COc1nsc(NC(=O)N2C[C@H]3C[C@H](Nc4c(C#N)cnc5[nH]ccc45)C[C@H]3C2)n1
1 (yes)

Cool, now CC[C@@H]1CN(C(=O)CCC(F)(F)F)C[C@@H]1Nc1c(C#N)cnc2[nH]ccc12 (relative stereo)
0 (no)
